Tested on: LOX IMVI melanoma
procedure details: NCI-60 one-dose screen, 48 h
stated conditions: 10 µM unless noted
This is part of a sample that, as a whole, favours compounds with a hit. Of some 83,000 tested, about 20% had one in any assay. Activity calls are given as the source filed them. How the source made its calls: active means growth percent below 10; inactive means the rest.
Your reply should match one of these outcome classes. yes for active, no for inactive

Example entries and their recorded answers appear below.
Cc1ccc(C(=O)Nc2ccc(CN3CCN(C)CC3)c(C(F)(F)F)c2)cc1C#Cc1cncc2ncccc12: yes
CCOC(=O)C1C(=O)C(=O)N(C(C)C)C1C(=O)OCC (stereo not drawn): no
CCn1cnc(C[C@H](NC(=O)[C@@H](NC(=O)Nc2cc(C(F)(F)F)cc(C(F)(F)F)c2)C(C)(C)C)C(=O)OC)c1: yes
O=C(O)c1occ(Cl)c1Cl: no

Query :: Recorded test outcome, item COc1cc(-c2c3c(cn2CCN2CCCCC2)-c2oncc2CC3)cc(OC)c1OC
Result :: no

Query :: Recorded test outcome, item CCOC(=O)c1ccc2n1CCCc1cnc(NC(C)=O)nc1-2
Result :: no

Query :: Recorded test outcome, item N=C(N)c1ccc(-c2ccc(-c3ccc(Cl)cc3)s2)s1
Result :: yes

Query :: Recorded test outcome, item CC(=N\N=C(N)N)/C(=N/N=C(N)N)c1ccccc1
Result :: no

====

Tested on: SNB-19 CNS
procedure details: NCI-60 one-dose screen, 48 h (100 = growth as untreated, 0 = no growth, -100 = all killed)
stated conditions: 10 µM unless noted
The panel holds about 83,000 compounds, 20% with a hit somewhere; the sample as a whole holds those more often. Calls of active or inactive are those of the source. Rule for the calls: active = growth percent below 10; inactive = the rest.
Please go through the items and note down their growth.

Past entries and their recorded results:
COc1cc2ncnc(-n3ncc4cc(NC(=O)Nc5ccc(Cl)c(Cl)c5)ccc43)c2cc1OC: 10.4% (inactive)
CC(C)(C)c1cc(C[P+](c2ccc(Cl)cc2)(c2ccc(Cl)cc2)c2ccc(Cl)cc2)cc(C(C)(C)C)c1O: 98% (inactive)

Please look at the items below and tell me growth for each one, in order.
1. COCn1c(C(=O)OC)cc2oc(/C=C3/SC(=S)N(N)C3=O)cc21
2. CCC(CCCN1C(=O)c2ccccc2C1=O)Nc1cc(OC)cc2cccnc12 (centres undefined)

Result ::
97.2% (inactive)
106% (inactive)

Please look at the items below and tell me growth for each one, in order.
1. O=C(CBr)OCc1ccc([N+](=O)[O-])o1
2. N=C(c1ccccc1)N(Cc1ccccc1)Cc1ccccc1
3. CCN(CCO)CCNc1ccc(C)c2sc3cc(OC)ccc3c(=O)c12
4. CC1(C)NCCC[C@]2(C)[C@H]3CC=C4[C@@H]5C[C@](C)(COC(=O)c6ccccc6C(=O)O)CC[C@]5(C)CC[C@@]4(C)[C@]3(C)CC[C@@H]12
5. CSc1nc(N)n2nccc2n1
6. O=c1[nH]c2cc(O)ccc2n2cc3c(F)cccc3c12
7. O=C(NCCNCCO)c1cc([N+](=O)[O-])cc([N+](=O)[O-])c1O
8. CCOC(=O)C1CCCN1C(=O)C1(NC(C)=O)CCCC1 (centres undefined)

Result ::
["104% (inactive)", "99.8% (inactive)", "67.7% (inactive)", "68.9% (inactive)", "99.7% (inactive)", "42.3% (inactive)", "102% (inactive)", "125% (inactive)"]

Please look at the items below and tell me growth for each one, in order.
1. c1cc(C2CCCCC2)ccc1OCCCCCCN1CCNCC1
2. CCN(CC)C(=O)C1(C)CCCC2(C)c3cc(OC(C)=O)ccc3CCC12 (centres undefined)

Result ::
["57.6% (inactive)", "96.5% (inactive)"]

Please look at the items below and tell me growth for each one, in order.
1. CCOC(=O)c1cc(-c2ccc(OC)cc2)[nH]c1NNC(=O)CCOC
2. C#CCCCCCCC[C@@H]1OC(=O)[C@H]([C@@H](C)CC)NC(=O)[C@@H]([C@@H](C)CC)NC(=O)CC(=O)[C@@H]1C
3. COc1ccc2cc(C(C)C(=O)Nc3ccc(S(=O)(=O)Nc4cc(C)on4)cc3)ccc2c1 (centres undefined)

Result ::
["103% (inactive)", "97.6% (inactive)", "117% (inactive)"]

Please look at the items below and tell me growth for each one, in order.
1. Cc1ccc(S(=O)(=O)Nc2cccc(Cn3c(=O)[nH]c4ccc(Oc5ncccn5)cc4c3=O)c2)cc1
2. Cc1cc2c(-c3nc4ccccc4[nH]3)c(O)c(O)cc2c(O)c1-c1c(C)cc2c(-c3nc4ccccc4[nH]3)c(O)c(O)cc2c1O
3. CCCCN(CCCC)c1ccc(C(=O)O)cc1
4. COC(=O)/C=C1/CCCCC1(C)C(=O)OC (centres undefined)

Result ::
57.4% (inactive)
7.78% (active)
84.8% (inactive)
102% (inactive)

Please look at the items below and tell me growth for each one, in order.
1. O=C(Nc1ccc(-n2cc(-c3ccncc3)c(-c3ccc(Cl)c(O)c3)n2)cc1)c1ccc(Cl)c(Cl)c1
2. CCC(C)CC(N)O (centres undefined)
3. COc1ccc(-c2nnc(SCC(=O)Nc3ccc(C(=O)/C=C/c4cc(OC)c(OC)c(OC)c4)cc3)n2-c2ccccc2)cc1OC

Result ::
1: 77.1% (inactive); 2: 106% (inactive); 3: -19.9% [100 µM] (active)

Please look at the items below and tell me growth for each one, in order.
1. COC(=O)/C=C/c1cc(O)c2oc(-c3ccc(O)c(O)c3)c(C(=O)OC)c2c1
2. COc1cc(-c2nc3c(c(C)nc4c3nnn4-c3ccccc3)c(=O)o2)cc(OC)c1OC
3. O=C(OCC1CC2(Cl)C(Cl)=C(Cl)C1(Cl)C2(Cl)Cl)C1C(C(=O)OCC2CC3(Cl)C(Cl)=C(Cl)C2(Cl)C3(Cl)Cl)C2(Cl)C(Cl)=C(Cl)C1(Cl)C2(Cl)Cl (centres undefined)

Result ::
31.7% (inactive)
110% (inactive)
106% (inactive)

Please look at the items below and tell me growth for each one, in order.
1. COc1ccc(/C=C(/C(=O)N2CCCCC2)c2cc(OC)c(OC)c(OC)c2)cc1
2. CC(O)CCC(C)[N+](=O)[O-] (centres undefined)
3. COC(=O)[C@H](Cc1cn(C)cn1)NC(=O)[C@@H](NC(=O)Nc1cc(C(F)(F)F)cc(C(F)(F)F)c1)C(C)(C)C
4. Cc1ncc(C(=O)Nc2ccc(CN3CCN(C)CC3)c(C(F)(F)F)c2)cc1C#Cc1c(N)ncc2ccccc12
5. COc1ccc(/C=C(/C(=O)N2CCN(c3ccc(C)cc3)CC2)c2cc(OC)c(OC)c(OC)c2)cc1N
6. O=C(CN1C(=O)NC(c2ccccc2)(c2ccccc2)C1=O)c1ccc(N2CCCC2)cc1

Result ::
["32% (inactive)", "99.9% (inactive)", "-91.6% [100 µM] (active)", "-100% (active)", "33.6% (inactive)", "90.7% (inactive)"]

====

System: SF-539 CNS
procedure details: NCI-60 one-dose screen, 48 h (100 = growth as untreated, 0 = no growth, -100 = all killed)
stated conditions: 10 µM unless noted
The panel holds about 83,000 compounds, 20% with a hit somewhere; the sample as a whole holds those more often. Calls of active or inactive are those of the source. Rule for the calls: active = growth percent below 10; inactive = the rest.
measured attribute: growth

Past entries and their recorded results:
COc1ccc(C(=O)CN2C(=O)NC(c3ccccc3)(c3ccccc3)C2=O)cc1: 92.9% (inactive)
Nc1nc2c(c3ncncc13)C(c1cccc(C(F)(F)F)c1)Cc1ncncc1-2 (stereo not given): -26.6% (active)
COc1cc(/C=C/C(=O)/C=C(/C=C/c2ccc(OC(C)=O)c(OC)c2)OB(F)F)ccc1OC(C)=O: 56.8% (inactive)
Nc1nc2cc(O)ccc2n2cc3c(F)cccc3c12: 13.7% (inactive)
CC[C@H](Nc1ncnc2nc[nH]c12)c1nc2cccc(NCc3ccc(C(=O)NO)nc3)c2c(=O)n1-c1ccccc1: 10.9% (inactive)
CC(C)OC(=O)[C@H](C)N[P@@](=O)(OC[C@@]1(C)O[C@@H](n2cc(F)c(N)nc2=O)C[C@@H]1O[P@](=O)(N[C@@H](C)C(=O)OC(C)C)Oc1ccccc1)Oc1ccccc1: 63.3% (inactive)
CCCCCCNC(=O)Oc1ccc(/C(=C(/C)Cc2ccc(OC)cc2)c2ccc(OCCN3CCCCC3)cc2)cc1: 91.8% (inactive)
Br/C(=N\Nc1nn[nH]n1)c1ccccc1: 96.7% (inactive)
CC(C)CSc1nc(-c2ccc(F)cc2)c(C#N)c(N2CCCCC2)n1: 103% (inactive)
CCOC(=O)C(C)C(C)(O)c1ccccc1 (stereo not given): 105% (inactive)

Please look at the items below and tell me growth for each one, in order.
1. COc1cc(-c2nn(-c3ccc(NC(=O)Nc4ccc(Cl)c(C(F)(F)F)c4)cc3)cc2-c2ccncc2)ccc1Cl
2. NCCCOc1cc(Cl)ccc1NC(=O)c1cc2ccccc2cc1OCCCN
3. OCCN1CCCN(CCCN2c3ccccc3Sc3ccc(C(F)(F)F)cc32)CC1
4. CC(=O)Oc1cc2ccccc2cc1C(C)C
5. O=C1/C(=C\c2cn(-c3nc(N4CCOCC4)nc(N4CCOCC4)n3)c3ccccc23)c2ccccc2N1c1c(Cl)cccc1Cl
6. CCCCCCCCCCCCOC(=N)N(C)C
7. CC(=O)N1CCN(CCNC(=O)n2cc(-c3ccncc3)c(-c3cc(O)cc(Cl)c3)n2)CC1
8. C=CCNCCC#N

Result ::
1: 14.7% (inactive); 2: -88.8% (active); 3: 67.2% (inactive); 4: 95% (inactive); 5: 63% (inactive); 6: 99.4% (inactive); 7: 71.6% (inactive); 8: 107% (inactive)

Please look at the items below and tell me growth for each one, in order.
1. c1ccc(Nc2ncc3c(n2)-c2cccn2CC3)cc1
2. O=C1/C(=C/c2ccc(Cl)cc2)CCC/C1=C\c1ccc(Cl)cc1

Result ::
1: 87.1% (inactive); 2: 88.1% (inactive)
